- Protocol Summary: MTT cytotoxicity assay
- Type: cell-based, human
- Test Parameters: human, HEK293T cells, OD450, cytotoxicity (Fig 2a), replicates
Residues, ends and D or L forms follow the SMILES beside them.
Metric Name: viability at 72 h, 0.39 µM (%)
All answers are understood in %, so give the number only.

# count of solved cases: 2
CC[C@H](C)[C@H](NC(=O)[C@H](CCCNC(=N)N)NC(=O)[C@H](CCCNC(=N)N)NC(=O)[C@H](CC(C)C)NC(=O)[C@H](Cc1ccccc1)NC(=O)[C@H](Cc1ccccc1)NC(=O)[C@H](Cc1ccccc1)NC(=O)[C@@H](N)Cc1ccccc1)C(=O)N[C@@H](Cc1ccccc1)C(=O)N[C@@H](CCCNC(=N)N)C(=O)N[C@@H](CCCNC(=N)N)C(N)=O [F-SHf(R^5)-RR] (H-FFFFLRRIFRR-NH2; N-terminus assumed): 69.1
CC[C@H](C)[C@H](NC(=O)[C@H](CCCNC(=N)N)NC(=O)[C@H](CCCNC(=N)N)NC(=O)[C@H](CC(C)C)NC(=O)[C@@H](N)Cc1ccccc1)C(=O)N[C@@H](Cc1ccccc1)C(=O)N[C@@H](Cc1ccccc1)C(=O)N[C@@H](Cc1ccccc1)C(=O)N[C@@H](Cc1ccccc1)C(N)=O [HT1] (H-FLRRIFFFF-NH2): 93.6

Lookup: viability at 72 h, 0.39 µM for CC[C@H](C)[C@H](NC(=O)[C@H](CCCNC(=N)N)NC(=O)[C@H](CCCNC(=N)N)NC(=O)[C@H](CC(C)C)NC(=O)[C@H](Cc1ccccc1)NC(=O)[C@@H](N)CCCNC(=N)N)C(=O)N[C@@H](Cc1ccccc1)C(=O)N[C@@H](CCCCN)C(=O)N[C@@H](Cc1ccccc1)C(=O)N[C@@H](Cc1ccccc1)C(=O)N[C@@H](Cc1ccccc1)C(N)=O [HT5] (H-RFLRRIFKFFF-NH2) ?
Found: 85.5

Lookup: viability at 72 h, 0.39 µM for CC[C@H](C)[C@H](NC(=O)[C@H](CCCNC(=N)N)NC(=O)[C@H](CCCNC(=N)N)NC(=O)[C@H](CC(C)C)NC(=O)[C@H](Cc1ccccc1)NC(=O)[C@H](Cc1ccccc1)NC(=O)[C@H](Cc1ccccc1)NC(=O)[C@@H](N)Cc1ccccc1)C(=O)N[C@@H](Cc1ccccc1)C(=O)N[C@@H](CCCNC(=N)N)C(N)=O [F-SHf(R^5)-R] (H-FFFFLRRIFR-NH2; N-terminus assumed) ?
Found: 35.2

Lookup: viability at 72 h, 0.39 µM for CC[C@H](C)[C@H](NC(=O)[C@H](CCCNC(=N)N)NC(=O)[C@H](CCCNC(=N)N)NC(=O)[C@H](CC(C)C)NC(=O)[C@H](Cc1ccccc1)NC(=O)[C@H](Cc1ccccc1)NC(=O)[C@H](Cc1ccccc1)NC(=O)[C@@H](N)Cc1ccccc1)C(=O)N[C@@H](Cc1ccccc1)C(N)=O [F-SHf(R^5)] (H-FFFFLRRIF-NH2; N-terminus assumed) ?
Found: 102

Lookup: viability at 72 h, 0.39 µM for CC[C@H](C)[C@H](NC(=O)[C@H](CCCNC(=N)N)NC(=O)[C@H](CCCNC(=N)N)NC(=O)[C@H](CC(C)C)NC(=O)[C@H](Cc1ccccc1)NC(=O)[C@@H](N)CCCNC(=N)N)C(=O)N[C@@H](Cc1ccccc1)C(=O)N[C@@H](Cc1ccccc1)C(=O)N[C@@H](Cc1ccccc1)C(=O)N[C@@H](Cc1ccccc1)C(N)=O [HT2] (H-RFLRRIFFFF-NH2) ?
Found: 100

* * *

- Tested on: MRSA ATCC 43300
- Assay type: cell-based, Staphylococcus aureus
- Test Parameters: ATCC 43300
Non-standard residues stand in square brackets, D forms with d. Residues, ends and D or L forms follow the SMILES beside them.
Metric Name: MIC Gram+ MRSA ATCC 43300

# count of solved cases: 5
CC[C@H](C)[C@H](NC(=O)[C@H](CCCNC(=N)N)NC(=O)[C@H](CCC(=O)O)NC(=O)[C@H](CC(C)C)NC(=O)[C@H](Cc1ccccc1)NC(=O)[C@H](Cc1ccccc1)NC(=O)[C@@H](N)Cc1ccccc1)C(=O)N[C@@H](Cc1ccccc1)C(N)=O [SHf(E^5)] (H-FFFLERIF-NH2; N-terminus assumed): > 100 µM
CC[C@H](C)[C@H](NC(=O)[C@H](CCCNC(=N)N)NC(=O)[C@@H](CCCNC(=N)N)NC(=O)[C@H](CC(C)C)NC(=O)[C@H](Cc1ccccc1)NC(=O)[C@H](Cc1ccccc1)NC(=O)[C@H](Cc1ccccc1)NC(=O)[C@@H](N)Cc1ccccc1)C(=O)N[C@@H](Cc1ccccc1)C(N)=O [F-SHf(dR^5)] (H-FFFFL[dR]RIF-NH2; N-terminus assumed): 3.13 µM
CC[C@H](C)[C@H](NC(=O)[C@H](CCCNC(=N)N)NC(=O)[C@H](CO)NC(=O)[C@H](CC(C)C)NC(=O)[C@H](Cc1ccccc1)NC(=O)[C@H](Cc1ccccc1)NC(=O)[C@H](Cc1ccccc1)NC(=O)[C@@H](N)Cc1ccc(O)cc1)C(=O)N[C@@H](Cc1ccccc1)C(N)=O [Y-SHf] (H-YFFFLSRIF-NH2; N-terminus assumed): 12.5 µM
CC[C@@H](C)[C@@H](NC(=O)[C@@H](Cc1ccccc1)NC(=O)[C@@H](Cc1ccccc1)NC(=O)[C@@H](Cc1ccccc1)NC(=O)[C@H](N)Cc1ccccc1)C(=O)N[C@H](CCCNC(=N)N)C(=O)N[C@H](CCCNC(=N)N)C(=O)N[C@H](CC(C)C)C(=O)N[C@H](Cc1ccccc1)C(=O)N[C@H](CCCNC(=N)N)C(N)=O [RI-HT2] (H-[dF][dF][dF][dF][dI][dR][dR][dL][dF][dR]-NH2; N-terminus assumed): 3.13 µM
CC[C@H](C)[C@H](NC(=O)[C@@H](CCCNC(=N)N)NC(=O)[C@@H](CCCNC(=N)N)NC(=O)[C@H](CC(C)C)NC(=O)[C@H](Cc1ccccc1)NC(=O)[C@H](Cc1ccccc1)NC(=O)[C@H](Cc1ccccc1)NC(=O)[C@@H](N)Cc1ccccc1)C(=O)N[C@@H](Cc1ccccc1)C(N)=O [F-SHf(dR^5, 6)] (H-FFFFL[dR][dR]IF-NH2; N-terminus assumed): 3.13 µM

Lookup: MIC Gram+ MRSA ATCC 43300 for CC[C@H](C)[C@H](NC(=O)[C@H](CCCNC(=N)N)NC(=O)[C@H](CO)NC(=O)[C@H](CC(C)C)NC(=O)[C@H](Cc1ccccc1)NC(=O)[C@H](Cc1ccccc1)NC(=O)[C@@H](N)Cc1ccc(O)cc1)C(=O)N[C@@H](Cc1ccccc1)C(N)=O [SHf(Y^1)] (H-YFFLSRIF-NH2; N-terminus assumed) ?
Found: > 100 µM

* * *

- Protocol Summary: MTT cytotoxicity assay
- Type: cell-based, human
- Test Parameters: human, HEK293T cells, OD450, cytotoxicity (Fig 2a), replicates
Residues, ends and D or L forms follow the SMILES beside them.
In this section we review reported viability at 72 h, 1.57 µM values for a set of compounds.
All answers are understood in %, so give the number only.

CC[C@H](C)[C@H](NC(=O)[C@H](CCCNC(=N)N)NC(=O)[C@H](CCCNC(=N)N)NC(=O)[C@H](CC(C)C)NC(=O)[C@H](Cc1ccccc1)NC(=O)[C@H](CCCNC(=N)N)NC(=O)[C@@H](N)CCCNC(=N)N)C(=O)N[C@@H](Cc1ccccc1)C(=O)N[C@@H](Cc1ccccc1)C(=O)N[C@@H](Cc1ccccc1)C(=O)N[C@@H](Cc1ccccc1)C(N)=O [HT3] (H-RRFLRRIFFFF-NH2; N-terminus assumed): 96.4
CC[C@H](C)[C@H](NC(=O)[C@H](CCCNC(=N)N)NC(=O)[C@H](CCCNC(=N)N)NC(=O)[C@H](CC(C)C)NC(=O)[C@H](Cc1ccccc1)NC(=O)[C@@H](N)CCCNC(=N)N)C(=O)N[C@@H](Cc1ccccc1)C(=O)N[C@@H](Cc1ccccc1)C(=O)N[C@@H](Cc1ccccc1)C(=O)N[C@@H](Cc1ccccc1)C(N)=O [HT2] (H-RFLRRIFFFF-NH2): 93.1
CC[C@H](C)[C@H](NC(=O)[C@H](CCCNC(=N)N)NC(=O)[C@H](CCCNC(=N)N)NC(=O)[C@H](CC(C)C)NC(=O)[C@H](Cc1ccccc1)NC(=O)[C@H](Cc1ccccc1)NC(=O)[C@H](Cc1ccccc1)NC(=O)[C@@H](N)Cc1ccccc1)C(=O)N[C@@H](Cc1ccccc1)C(=O)N[C@@H](CCCNC(=N)N)C(=O)N[C@@H](CCCNC(=N)N)C(N)=O [F-SHf(R^5)-RR] (H-FFFFLRRIFRR-NH2; N-terminus assumed): 6.12

Query compound follows.
Lookup: viability at 72 h, 1.57 µM for CC[C@H](C)[C@H](NC(=O)[C@H](CCCNC(=N)N)NC(=O)[C@H](CCCNC(=N)N)NC(=O)[C@H](CC(C)C)NC(=O)[C@H](Cc1ccccc1)NC(=O)[C@H](Cc1ccccc1)NC(=O)[C@H](Cc1ccccc1)NC(=O)[C@@H](N)Cc1ccccc1)C(=O)N[C@@H](Cc1ccccc1)C(N)=O [F-SHf(R^5)] (H-FFFFLRRIF-NH2; N-terminus assumed) ?
Found: 89.3
